melting point values, listed per item

Some entries whose results are on file:
Molecular String: COc1ccc(Cn2c(=O)n([C@H]3CC[C@H](O)CC3)c3ccc([N+](=O)[O-])cc32)cc1OC
melting point: 175 to 176 °C

Molecular String: COc1ccc(Cn2c(=O)n([C@H]3CC[C@H](O)CC3)c3ncc(C#N)cc32)cc1Br
melting point: 114 to 116 °C

Molecular String: O=c1n(Cc2ccc(Cl)c(Cl)c2)c2cc(C(F)(F)F)cnc2n1[C@H]1CC[C@H](O)CC1
melting point: 170 to 171.5 °C

Proceed to the following item.
Query string: Suppose we examine the compound COc1ccc(Cn2c(=O)n(C3CCOCC3)c3ccc(C(F)(F)F)cc32)cc1Cl ; what melting point value has been reported?
Result string: 175 to 176 °C
